- Read-out: Urokinase-type plasminogen activator receptor (uPAR), PLAUR (gene 5329)
- experimental-details: BSK_BE3C_uPAR: BioMAP Diversity Plus: BE3C Assay for Urokinase-type plasminogen activator receptor (uPAR) Biomarker Activity (AID 2283039)
- measurement-context: primary human bronchial epithelial cells; actives raise or lower the signal
Active and inactive are the calls of the source. Rule for the calls: active = hit-call score of the fitted dose curve at least 0.9, where 1 is the maximum; inactive = score below 0.9.
I would appreciate it if you answered using one of these outcomes: active, inactive

See these solved cases before continuing.
> print(dat)
                            chemical.string  class.name
1  Cc1[nH]nc2c1N=C(c1ccccc1Cl)c1cc([N+](=O)[O-])ccc1N2    inactive
2  O=P(O)(O)CCC(F)(F)C(F)(F)C(F)(F)C(F)(F)C(F)(F)C(F)(F)C(F)(F)C(F)(F)F    inactive
3   N=C(N)c1ccc(OCCCCCOc2ccc(C(=N)N)cc2)cc1    inactive
4                           OCC(CO)(CBr)CBr    inactive
5                           O=C(NO)c1ccccc1    inactive

Record request — test call for "Cc1ccc(N=Nc2c(O)ccc3ccccc23)c(C)c1"
active

----------
- experimental-details: ATG_ISRE_CIS: Attagene CIS-FACTORIAL HepG2 Assay for human Interferon Regulatory Factor 1 (IRF1) binding to an Interferon-Stimulated Response Element (ISRE) (AID 2282948)
- measurement-context: HepG2 ISRE cis-reporter (Attagene), mRNA transcription readout; actives raise or lower the signal
- Experimental: ATG_CIS is a cell-based, multiplexed-readout assay that uses HepG2, a human liver cell line, with measurements taken at 24 hours after chemical dosing in a 24-well plate.ATG_ISRE_CIS is one of 52 assay component(s) measured or calculated from the ATG_CIS assay. […] This assay endpoint, ATG_ISRE_CIS, was analyzed with bidirectional fitting relative to DMSO as the negative control and baseline of activity. […]
Activity calls are given as the source filed them. Rule for the calls: active = hit-call score of the fitted dose curve at least 0.9, where 1 is the maximum; inactive = score below 0.9.
Pick one and only one: active, inactive

Solved cases below.
> print(dat)
                               molecule  class.name
1  FC(F)=C(F)C(F)(F)C(F)(F)C(F)(F)C(F)F    inactive
2                   Oc1c(Cl)ccc(Cl)c1Cl    inactive

Hello, I am checking results. What call was entered for "O=C1NS(=O)(=O)c2ccccc21" ?
inactive

Field: outcome | Entry: "FC(F)(F)C1(F)C(F)(F)C(F)(F)C(F)(F)C1(F)F"
inactive

Hi, do you know how "CCc1ccccc1O" came out in this test?
inactive

Fill in: this test's call for "Cc1cccc2c1ccc1ccccc12" is ___
inactive

Just curious, what result did "C=CC(F)(F)C(F)(F)C(F)(F)C(F)(F)F" get here?
inactive

----------
- Read-out: Cyclin Dependent Kinase Inhibitor 1A (CDKN1A), CDKN1A (gene 1026)
- experimental-details: LTEA_HepaRG_CDKN1A: Life Technologies and Expression Analysis (LTEA) Assay for Cyclin Dependent Kinase Inhibitor 1A (CDKN1A) using HepaRG (AID 2283450)
- measurement-context: mRNA level, 48 h; actives raise or lower the signal
Calls of active or inactive are those of the source. How the source made its calls: active means hit-call score of the fitted dose curve at least 0.9, where 1 is the maximum; inactive means score below 0.9.
Select the matching outcome among active, inactive

Solved cases below.
> print(dat)
                                   molecule  class.name
1  CN(Cc1cnc2nc(N)nc(N)c2n1)c1ccc(C(=O)N[C@@H](CCC(=O)O)C(=O)O)cc1    inactive
2  CCCCc1oc2ccccc2c1C(=O)c1cc(I)c(OCCN(CC)CC)c(I)c1      active
3  O=C(CCCN1CCC(O)(c2ccc(Cl)cc2)CC1)c1ccc(F)cc1      active
4        CCCCC(CC)C(=O)O (stereo not drawn)    inactive
5               CN(C)CCOC(c1ccccc1)c1ccccc1    inactive

Outcome logged for "OCC(CO)(CBr)CBr" in this assay:
inactive

Assay outcome for "O=C(c1ccccc1)c1ccccc1" : what was it?
inactive

Recorded call for "CC(=O)Nc1ccc(O)cc1" ?
inactive

----------
- measured-on: Heat shock factor protein 1 (Homo sapiens)
- experimental-details: ATG_HSE_CIS: Attagene CIS-FACTORIAL HepG2 Assay for human Heat Shock Transcription Factor 1 (HSE) (AID 2282953)
- measurement-context: HepG2 HSE cis-reporter, Attagene RNA transcription; actives raise or lower the signal
Calls of active or inactive are those of the source. Rule for the calls: active = hit-call score of the fitted dose curve at least 0.9, where 1 is the maximum; inactive = score below 0.9.
# valid calls are active, inactive; nothing else

> print(dat)
                            chemical.string  class.name
1  C[N+](C)(CCCNS(=O)(=O)CCC(F)(F)C(F)(F)C(F)(F)C(F)(F)C(F)(F)C(F)(F)F)CC(=O)[O-]    inactive
2       CCCCCCCCCCCCOC(=O)c1cc(O)c(O)c(O)c1      active
3                                    CCCC=O    inactive
4                   O=C1OC(=O)C(F)(F)C1(F)F    inactive

Short answer needed: outcome of this test for "CC1=CC(=O)c2ccccc2C1=O" ?
inactive

----------
- experimental-details: ATG_TGFb_CIS: Attagene CIS-FACTORIAL HepG2 Assay for human Transforming Growth Factor (TGF) (AID 2282967)
- measurement-context: HepG2 Attagene CIS TGFb reporter, mRNA transcription; actives raise or lower the signal
Calls of active or inactive are those of the source. The calls were made as follows: active = hit-call score of the fitted dose curve at least 0.9, where 1 is the maximum; inactive = score below 0.9.
Your answer must be one of the following: class 1 for active, class 0 for inactive

Solved entries (count: 5):
> print(dat)
                                   molecule  class.name
1  C[N+](C)(CCCNS(=O)(=O)CCC(F)(F)C(F)(F)C(F)(F)C(F)(F)C(F)(F)C(F)(F)F)CC(=O)[O-]     class 0
2  O=C(O)CCC(F)(F)C(F)(F)C(F)(F)C(F)(F)C(F)(F)C(F)(F)F     class 0
3                                 CCCCN(C)C     class 0
4           CCCCCCCCCCCC[N+](C)(C)Cc1ccccc1     class 0
5           CC(C)[C@@H]1CC[C@@H](C)C[C@H]1O     class 0

Kindly provide the recorded test outcome for the following molecule: CCCCCC(C)OC(=O)COc1ccc(Cl)c2cccnc12 (configuration not stated)
class 0

Tell me the recorded outcome of this test for "COc1cc(OC)nc(NC(=O)NS(=O)(=O)Nc2ccccc2C(=O)N(C)C)n1" .
class 0

Please let me know the test result on file for CC1CCC(CO)CC1 (configuration not stated) .
class 0

For "CS(=O)(=O)c1ccc([C@@H](CC2CCCC2)C(=O)Nc2cnccn2)cc1Cl" , which call appears in the assay record?
class 0

What is the recorded call for this molecule in the test? "C[C@]12CC[C@@H]3c4ccc(O)cc4CC[C@H]3[C@@H]1CC[C@@H]2OC(=O)CCC1CCCC1"
class 0

# fetch the recorded call for "CCCCc1oc2ccccc2c1C(=O)c1cc(I)c(OCCN(CC)CC)c(I)c1" here
class 0

----------
- Read-out: Monokine induced gamma interferon (MIG), CXCL9 (gene 4283)
- experimental-details: BSK_3C_MIG: BioMAP Diversity Plus: 3C Assay for Monokine induced gamma interferon (MIG) Biomarker Activity (AID 2283021)
- measurement-context: primary human endothelial cells (HUVEC); actives raise or lower the signal
Active and inactive are the calls of the source. How the source made its calls: active means hit-call score of the fitted dose curve at least 0.9, where 1 is the maximum; inactive means score below 0.9.
Response enum: class 1 (active), class 0 (inactive)

For orientation, consider the following solved cases.
> print(dat)
                                   compound  class.name
1  CCCCC(CC)C(=O)OCCOCCOCCOCCOC(=O)C(CC)CCCC (configuration not stated)     class 0
2                    C=COC(=O)C(C)(C)CCCCCC     class 1
3  O=P(O)(O)CCC(F)(F)C(F)(F)C(F)(F)C(F)(F)C(F)(F)C(F)(F)F     class 0
4                  Cc1ccc(C(=O)c2ccccc2)cc1     class 0
5  CN(Cc1cnc2nc(N)nc(N)c2n1)c1ccc(C(=O)N[C@@H](CCC(=O)O)C(=O)O)cc1     class 0
6                     Cc1cccc2c1ccc1ccccc12     class 0

Please examine the following record next.
Dear colleague, could you share the recorded outcome for "O=C(c1ccccc1)c1ccccc1" when you have a moment?
class 0

----------
- Read-out: Cytochrome P450 2C19 (Homo sapiens) (UniProt P33261)
- Sequence (P33261 whole entry, looked up): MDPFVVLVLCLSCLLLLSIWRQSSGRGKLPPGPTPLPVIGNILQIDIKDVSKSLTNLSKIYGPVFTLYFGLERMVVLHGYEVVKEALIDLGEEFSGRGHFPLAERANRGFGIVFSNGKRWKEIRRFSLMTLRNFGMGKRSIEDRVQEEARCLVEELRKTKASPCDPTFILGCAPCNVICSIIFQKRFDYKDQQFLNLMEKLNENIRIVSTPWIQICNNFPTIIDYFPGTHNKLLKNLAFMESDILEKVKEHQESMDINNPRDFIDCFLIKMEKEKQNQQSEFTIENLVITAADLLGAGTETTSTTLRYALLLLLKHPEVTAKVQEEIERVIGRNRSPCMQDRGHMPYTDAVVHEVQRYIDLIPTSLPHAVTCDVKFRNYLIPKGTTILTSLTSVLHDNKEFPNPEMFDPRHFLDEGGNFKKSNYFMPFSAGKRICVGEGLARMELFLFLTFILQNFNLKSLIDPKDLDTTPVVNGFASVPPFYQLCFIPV
- experimental-details: LTEA_HepaRG_CYP2C19: Life Technologies and Expression Analysis (LTEA) Assay for CYP2C19 using HepaRG (AID 2283482)
- measurement-context: mRNA level, 48 h; actives raise or lower the signal
Calls of active or inactive are those of the source. The calls were made as follows: active = hit-call score of the fitted dose curve at least 0.9, where 1 is the maximum; inactive = score below 0.9.
measurement-label: outcome

> print(dat)
                            chemical.string  measured.result
1                                   CCCCC=O         inactive
2  CN(Cc1cnc2nc(N)nc(N)c2n1)c1ccc(C(=O)N[C@@H](CCC(=O)O)C(=O)O)cc1         inactive
3                           OCC(CO)(CBr)CBr         inactive
